test system: CD2F1 mice, L1210 leukemia ip, survival T/C; assay: NCI In Vivo Anticancer Drug Screen. Data for tumor model L1210 Leukemia (intraperitoneal) in CD2F1 (CDF1) mice; details: endpoint: mean survival time; dose: 100.0 mg/kg/injection; schedule: Q04DX003 (ip); vehicle: other; higher = longer survival
Inconclusive results and toxic doses are left out.
readout-type: T/C

Req: // Input: CCC(CC)C(O)CC(O)CC(C)C (stereo not drawn) . Output its T/C only.
Resp: 86 % of control

Req: Query T/C for Nc1cccc2sccc12
Resp: 106 % of control

Req: Please supply the value of reported T/C for the item ClCCOc1ccccc1-c1ccccc1
Resp: 98 % of control

***
Req: Please look at this compound and report its T/C: CCOC(=O)C1CC=CCC1C(=O)OCC (stereo not drawn)
Resp: 103 % of control

Req: Answer with the recorded T/C of CC(=O)c1cccc(OCc2ccccc2)c1 only.
Resp: 96 % of control

Req: Please report T/C for the following compound: Cc1nc(N)[nH]c(=O)c1[N+](=O)[O-]
Resp: 108 % of control

Req: Look up and state reported T/C for O=C(O)c1ccc(CCCBr)cc1
Resp: 107 % of control

Req: Identify the reported T/C for the following entry. Cc1ccc(/C=C2\CC(C)(C)c3ccccc3C2=O)cc1
Resp: 104 % of control

###

test system: CD2F1 mice, L1210 leukemia ip, survival T/C; test: NCI In Vivo Anticancer Drug Screen. Data for tumor model L1210 Leukemia (intraperitoneal) in CD2F1 (CDF1) mice; conditions: endpoint: mean survival time; dose: 400.0 mg/kg/injection; schedule: Q04DX003 (ip); vehicle: saline with Tween-80; higher = longer survival
Inconclusive results and toxic doses are left out.
readout-type: T/C

Req: Under CD2F1 mice, L1210 leukemia ip, survival T/C: report T/C of O=C(O)CCCCc1ccccc1 .
Resp: 106 % of control

Req: Provide T/C, system CD2F1 mice, L1210 leukemia ip, survival T/C, entry O=C(O)C12CC3CC(CC(C3)C1)C2
Resp: 102 % of control

New cases:
Req: Look up CD2F1 mice, L1210 leukemia ip, survival T/C data: T/C of C=C(c1ccccc1)c1ccc(N(C)C)cc1 , then report it.
Resp: 95 % of control

Req: Report measured T/C on CD2F1 mice, L1210 leukemia ip, survival T/C; entry: CCOC(=O)C(=O)Nc1onc(C)c1NC(=O)C(=O)OCC
Resp: 96 % of control

Req: Identify measured T/C obtained with CD2F1 mice, L1210 leukemia ip, survival T/C for COc1ccc2[nH]c(-c3ccccc3)cc2c1 .
Resp: 98 % of control

###

tested on: CD2F1 mice, L1210 leukemia ip, survival T/C; test: NCI In Vivo Anticancer Drug Screen. Data for tumor model L1210 Leukemia (intraperitoneal) in CD2F1 (CDF1) mice; conditions: endpoint: mean survival time; dose: 100.0 mg/kg/injection; schedule: Q01DX009 (ip); vehicle: saline with Tween-80; higher = longer survival
Inconclusive results and toxic doses are left out.
Attribute: T/C

Req: Consider the compound Cc1c(Cl)cccc1NS(=O)(=O)c1ccccc1 . State its measured T/C.
Resp: 108 % of control

Consider the record given below.
Req: Given COc1cc(C(=O)N/N=C/c2ccc(N(C)C)cc2)cc(OC)c1OC , respond with its T/C.
Resp: 119 % of control
